# System: SK-OV-3 ovarian
# assayOverview: NCI-60 one-dose screen, 48 h (100 = growth as untreated, 0 = no growth, -100 = all killed)
# setupConditions: 10 µM
This is part of a sample that, as a whole, favours compounds with a hit. Of some 83,000 tested, about 20% had one in any assay.
attributeMeasured: growth (%)
Return type: number; implicit unit %.

compound	valueUnits	growth
Oc1c(I)cc(I)cc1I	%	109
CC1CCC2(OC1)OC1C(O)C3C4CCC5CC(OC6OC(CO)C(OC7OC(CO)C(O)C(OC8OCC(O)C(O)C8O)C7OC7OC(CO)C(O)C(OC8OC(CO)C(O)C(O)C8O)C7O)C(O)C6O)C(O)CC5(C)C4CCC3(C)C1C2C (stereo not drawn)	%	-35.8
C[CH2][Hg][S]c1ccccc1C(=O)O	%	21.1
CCCCCCCC[N+]12CN3CN(CN(C3)C1)C2	%	103
COc1cc([N+](=O)[O-])c2ncccc2c1[N+](=O)[O-]	%	91.5
NC(=O)c1cc([N+](=O)[O-])c(Cl)c([N+](=O)[O-])c1Cl	%	101
CC(=O)Nc1c2sscc-2n(C)c1=O	%	-100
O=S(=O)(F)c1ccc(Cl)cc1	%	104

Here is the next item to consider.
Ask | Consider the compound Cc1ccc(NC(=O)CBr)cc1 and give its recorded growth.
Reply | 86.1

###

# Test system: NCI-H460 lung
# assayOverview: NCI-60 one-dose screen, 48 h
# setupConditions: 10 µM
About 83,000 compounds went through this panel and 20% of them were active in at least one assay; those are over-represented in the sample as a whole. Calls of active or inactive are those of the source. How the source made its calls: active means growth percent below 10; inactive means the rest.
Choose the fitting class; nothing outside active, inactive is accepted.

compound	class
S=C=NCCc1ccccc1	inactive
CC(Cc1ccc2c(c1)OCO2)NN (stereo not given)	inactive
[O-][n+]1ccccc1S	active
Cc1cc(C(C)(C)c2ccc(O)c(C)c2)ccc1O	inactive

As a next step, examine the compound that follows.
Ask | What did the test return for CCOP(=O)(OCC)C(O)c1ccccc1Cl (stereo not given) ?
Reply | inactive

###

# Tested on: NCI-H226 lung
# assayOverview: NCI-60 one-dose screen, 48 h
# setupConditions: 10 µM
The panel holds about 83,000 compounds, 20% with a hit somewhere; the sample as a whole holds those more often. The source made the active and inactive calls. Rule for the calls: active = growth percent below 10; inactive = the rest.
Choose the fitting class; nothing outside active, inactive is accepted.

Here's what some known entries look like.
molecule	class
CC(C)C1(NC(=O)C2CC3c4cccc5[nH]cc(c45)CC3N(C)C2)OC2(O)C3CCCN3C(=O)C(Cc3ccccc3)N2C1=O (stereo not given)	inactive
COc1cc([C@@H]2c3cc4c(c(O)c3C[C@H]3COC(=O)[C@@H]32)OCO4)cc(OC)c1OC	inactive
C=C1C(=O)O[C@@H]2C[C@@H](C)[C@@H]3C=CC(=O)[C@@]3(C)[C@@H](O)[C@H]12	active
O=[N+]([O-])c1ccc(Br)c([N+](=O)[O-])c1	inactive
[Cl][Hg][c]1ccc(Cl)s1	inactive
C[C@]12CC[C@H]3[C@@H](CCC4=CC(=O)CC[C@@H]43)[C@@H]1CC[C@@H]2OC(=O)N(CCCl)N=O	inactive
N#CCc1ccccc1	inactive
O=[N+]([O-])/C=C/c1ccc(Cl)cc1[N+](=O)[O-]	inactive
COc1cc(/C=C/[N+](=O)[O-])cc(Br)c1OC	active

As a next step, examine the molecule that follows.
Ask | What did the test return for O=C(CCl)Nc1ccc(Cl)cc1 ?
Reply | inactive

###

# System: A549/ATCC NSCLC
# assayOverview: NCI-60 one-dose screen, 48 h
# setupConditions: 10 µM
The panel holds about 83,000 compounds, 20% with a hit somewhere; the sample as a whole holds those more often. Active and inactive are the calls of the source. How the source made its calls: active means growth percent below 10; inactive means the rest.
Choose the fitting class; nothing outside True (active), False (inactive) is accepted.

molecule	assaySystem	class
COc1cc2c(cc1OC)C13CCN4CC5=CCOC6CC(=O)N2C1C6C5CC43 (configuration not stated)	A549/ATCC NSCLC	False
Oc1c(I)cc(I)cc1I	A549/ATCC NSCLC	False
C/C1=C\[C@H](C)C[C@H](C)OC(=O)C[C@H](c2ccc(O)cc2)NC(=O)[C@@H](Cc2c(Br)[nH]c3ccccc23)N(C)C(=O)[C@H](C)NC(=O)[C@@H](C)C1	A549/ATCC NSCLC	True
CC(C)C1(NC(=O)C2CC3c4cccc5[nH]cc(c45)CC3N(C)C2)OC2(O)C3CCCN3C(=O)C(Cc3ccccc3)N2C1=O (configuration not stated)	A549/ATCC NSCLC	False
COc1cc(/C=C/[N+](=O)[O-])cc(Br)c1OC	A549/ATCC NSCLC	False
COC(=O)C1C(O)C(C)C(O)C(C)/C=C\C=C(C)C(=O)Nc2c(C)c(OC(C)=O)c3c(c2O)C(=O)C(C)=C2OCOC(=C23)C(C)=CC(C)(O)C(O)C(C)C1O (configuration not stated)	A549/ATCC NSCLC	False
COc1cc2c(c(OC)c1OC)-c1ccc(O)c(=O)cc1[C@@H](NC(C)=O)CC2	A549/ATCC NSCLC	False
NC(=O)c1cc([N+](=O)[O-])c(Cl)c([N+](=O)[O-])c1	A549/ATCC NSCLC	False

Ask | What did the test return for O=C1CCC(=O)N1SC(Cl)(Cl)Cl ?
Reply | False

###

# Test system: HL-60(TB) leukemia
# assayOverview: NCI-60 one-dose screen, 48 h
# setupConditions: 10 µM
About 83,000 compounds went through this panel and 20% of them were active in at least one assay; those are over-represented in the sample as a whole. Activity calls are given as the source filed them. How the source made its calls: active means growth percent below 10; inactive means the rest.
Choose the fitting class; nothing outside active, inactive is accepted.

compound	class
O=C(O)c1cc(Cc2ccc(O)c(C(=O)O)c2)ccc1O (tested in a mixture with another compound)	inactive

Ask | What did the test return for CN(C)CC1(N)C(=O)NC(=O)NC1=O ?
Reply | inactive

Ask | What did the test return for O=C(CCl)Nc1ccc(Cl)cc1 ?
Reply | inactive

Ask | What did the test return for CC(Cc1ccc2c(c1)OCO2)NN (stereo unspecified) ?
Reply | inactive

Ask | What did the test return for CC(=O)Nc1c2sscc-2n(C)c1=O ?
Reply | active

Ask | What did the test return for O=[N+]([O-])c1ccc(N(CCO)CCO)c2c1no[n+]2[O-] ?
Reply | active

###

# Test system: T-47D breast
# assayOverview: NCI-60 one-dose screen, 48 h (100 = growth as untreated, 0 = no growth, -100 = all killed)
# setupConditions: 10 µM
About 83,000 compounds went through this panel and 20% of them were active in at least one assay; those are over-represented in the sample as a whole.
attributeMeasured: growth (%)
Return type: number; implicit unit %.

compound	valueUnits	observedValue
CCOP(=O)(OCC)C(O)c1ccccc1Cl (stereo unspecified)	%	89.1
O=C1CCC(=O)N1SC(Cl)(Cl)Cl	%	118
CC12OOC(c3ccccc31)c1c2ccc2ccccc12 (stereo unspecified)	%	-28.8
COc1cc([N+](=O)[O-])c2ncccc2c1[N+](=O)[O-]	%	50.9

Here is the next item to consider.
Ask | Give growth for this entry on T-47D breast: COC12c3c(C)cc(O)c4c(=O)occ(c34)C(=O)C1C13COC(=O)c4c(O)cc(C)c(c41)C(=O)C2C3OC(C)=O (stereo unspecified)
Reply | 94

###

# Tested on: HL-60(TB) leukemia
# assayOverview: NCI-60 one-dose screen, 48 h (100 = growth as untreated, 0 = no growth, -100 = all killed)
# setupConditions: 10 µM
Compounds without any hit were thinned out: in the full panel of roughly 83,000, 20% have a hit.
growth vs -10%: at or above is Yes, below is No.

Here's what some known entries look like.
molecule	class
CC(=O)[O][Hg][c]1c(C)c(C)cc(C)c1C	No
C[C@@H]1C[C@@H]([C@H](O)CC2CC(=O)NC(=O)C2)C(=O)[C@@H](C)C1	Yes
COc1ccccc1/C=C/[N+](=O)[O-]	Yes
COC12c3c(C)cc(O)c4c(=O)occ(c34)C(=O)C1C13COC(=O)c4c(O)cc(C)c(c41)C(=O)C2C3OC(C)=O (configuration not stated)	Yes
CN(CCCl)c1ccc(/C=C/C2=[N+](C)c3ccccc3C2(C)C)cc1	No

As a next step, examine the molecule that follows.
Ask | I'd appreciate it if you could say whether Oc1c(I)cc(I)cc1I has growth at least equal to -10%.
Reply | Yes

###

# Tested on: SK-MEL-2 melanoma
# assayOverview: NCI-60 one-dose screen, 48 h
# setupConditions: 10 µM
About 83,000 compounds went through this panel and 20% of them were active in at least one assay; those are over-represented in the sample as a whole. Activity calls are given as the source filed them. Rule for the calls: active = growth percent below 10; inactive = the rest.
Choose the fitting class; nothing outside TRUE = active, FALSE = inactive is accepted.

Here's what some known entries look like.
compound	class
COc1cc2c(c(OC)c1OC)-c1ccc(O)c(=O)cc1[C@@H](NC(C)=O)CC2	FALSE
CC(=O)Nc1c2sscc-2n(C)c1=O	TRUE
CC(Cc1ccc2c(c1)OCO2)NN (stereo unspecified)	FALSE
C/C1=C\[C@H](C)C[C@H](C)OC(=O)C[C@H](c2ccc(O)cc2)NC(=O)[C@@H](Cc2c(Br)[nH]c3ccccc23)N(C)C(=O)[C@H](C)NC(=O)[C@@H](C)C1	TRUE
CN(CCCl)c1ccc(/C=C/C2=[N+](C)c3ccccc3C2(C)C)cc1	FALSE
[Cl][Hg][c]1ccc2ccccc2c1	TRUE
O=C(CBr)Nc1ccc(Cl)cc1	FALSE
N#CCc1ccccc1	FALSE
C[C@]12CC[C@H]3[C@@H](CCC4=CC(=O)CC[C@@H]43)[C@@H]1CC[C@@H]2OC(=O)N(CCCl)N=O	FALSE
Oc1c(Cl)cc(Cl)c2ccccc12.[Cu+2]	FALSE

As a next step, examine the compound that follows.
Ask | What did the test return for S=C=NCCc1ccccc1 ?
Reply | FALSE
